Tested on: SARS-CoV-2, isolate USA-WA1/2020 (SARS-CoV-2 New York)
Test: SARS-CoV-2 anti-viral assay New York (N-protein staining)
Assay type: cell-based
Details: Severe acute respiratory syndrome coronavirus 2; SARS-CoV-2 New York isolate, 48 hours; read-out: Anti-Viral NY IC50
Consider the following compounds; for each one, report its IC50.
Give the quantity in nM, number only.

May I ask what IC50 has been recorded for O=C(Nc1ccc(CN2CCCOCC2)cc1)c1ccc(Cl)cc1 [Compound 1] ?
700

May I ask what IC50 has been recorded for O=C(Nc1ccc(CN2CC3(COC3)C2)cc1)c1ccc(Cl)cc1 [Compound 2] ?
1200

May I ask what IC50 has been recorded for O=C(Nc1ccc(CN2CCC(O)CC2)cc1)c1ccc(Cl)cc1 [Compound 11] ?
200
